study system: T1, ZFP SBS#1076 (synthetic)
T1 chain: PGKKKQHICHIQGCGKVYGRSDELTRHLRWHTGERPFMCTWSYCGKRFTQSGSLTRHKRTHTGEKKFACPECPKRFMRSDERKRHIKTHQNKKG
test summary: EMSA
assay conditions: tags: MBP fusion
measurement type: Kd (nM)
# value in nM; strip the unit string

Supply recorded Kd for GCGGCAGCG (dsDNA) DNA 1: GCGGCAGCG DNA 2: CGCTGCCGC here.
4.1

meta.source: patent US20030068675
